This section presents variants with their documented screen value values.
B1: S. cerevisiae Abp1 (full length; SH3 domain 535-592 mutated) / Hua2 (parent)
chain 1: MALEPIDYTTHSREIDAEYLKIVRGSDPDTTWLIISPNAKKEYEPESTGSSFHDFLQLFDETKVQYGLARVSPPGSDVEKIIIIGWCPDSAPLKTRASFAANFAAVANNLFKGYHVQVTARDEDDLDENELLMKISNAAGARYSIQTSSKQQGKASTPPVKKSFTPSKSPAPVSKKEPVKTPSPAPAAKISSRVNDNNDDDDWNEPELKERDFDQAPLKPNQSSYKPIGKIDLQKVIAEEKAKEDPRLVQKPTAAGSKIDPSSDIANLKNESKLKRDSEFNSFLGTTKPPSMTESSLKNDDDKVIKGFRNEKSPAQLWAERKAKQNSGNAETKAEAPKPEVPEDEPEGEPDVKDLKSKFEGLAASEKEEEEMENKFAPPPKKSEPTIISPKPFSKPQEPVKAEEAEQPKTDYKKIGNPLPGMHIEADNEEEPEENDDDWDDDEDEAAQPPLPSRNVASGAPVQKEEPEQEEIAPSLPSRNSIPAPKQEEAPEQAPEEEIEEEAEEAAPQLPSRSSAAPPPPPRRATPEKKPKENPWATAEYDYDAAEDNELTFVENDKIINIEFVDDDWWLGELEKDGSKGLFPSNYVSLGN
chain 2: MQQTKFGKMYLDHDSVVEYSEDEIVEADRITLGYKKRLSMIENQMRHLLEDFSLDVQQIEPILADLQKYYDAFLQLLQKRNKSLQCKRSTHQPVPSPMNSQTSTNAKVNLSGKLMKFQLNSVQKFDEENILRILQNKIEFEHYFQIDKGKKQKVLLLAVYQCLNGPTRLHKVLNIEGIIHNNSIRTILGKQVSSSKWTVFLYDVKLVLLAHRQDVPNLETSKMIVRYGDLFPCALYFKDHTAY

- Variants of: B1
- TEST: DHFR protein-fragment complementation in yeast (Abp1-DHFR F[1,2] x partner-DHFR F[3]), deep mutational scanning, second methotrexate selection vs reference
- STATED CONDITIONS: with Hua2; S. cerevisiae, DHFR-PCA selection in liquid with methotrexate at 30 C, two 72 h selections (the score uses the second); reference = the pre-selection culture; not an affinity; value at the no-binding floor (a bound); scale: DMS score: mean over two replicates of log2(f_test/f_ref + 0.5)/ln 2, minus the synonymous-codon median
MEASURE: screen value

{"columns": ["VARIANT ANNOTATION", "MEASURED RESULT"],
 "data": [
  ["chain 1 F583T", "< -3.06"],
  ["chain 1 F553N", "< -3.06"],
  ["chain 1 G572K", "< -3.06"],
  ["chain 1 W570H", "< -3.06"],
  ["chain 1 F583E", "< -3.06"],
  ["chain 1 A539K", "< -3.06"],
  ["chain 1 V554P", -3.04],
  ["chain 1 P584I", "< -3.06"],
  ["chain 1 D557R", "< -3.06"],
  ["chain 1 I559R", -3.03],
  ["chain 1 L582A", -3.04],
  ["chain 1 W570M", -3.02],
  ["chain 1 L551H", -2.98],
  ["chain 1 W569T", "< -3.06"],
  ["chain 1 I559D", -3.04],
  ["chain 1 F553D", "< -3.06"],
  ["chain 1 W569H", -3.05],
  ["chain 1 I562R", "< -3.06"],
  ["chain 1 N561V", -3.02],
  ["chain 1 E550W", "< -3.06"],
  ["chain 1 G578I", "< -3.06"],
  ["chain 1 W569P", "< -3.06"]
]}
